The values you see were collected from BindingDB's records for doi:10.1021/jm950932r.

- method-description: Compound was evaluated for inhibition of hormone stimulated Adenylate cyclase activity in N18TG2 membranes.
Assignment: determine reported EC50 for the given compounds.

Prompt line: Give recorded EC50. "Cc1c(C(=O)c2cccc3ccccc23)c2ccccc2n1CCN1CCOCC1"
Response line: 370 nM

Prompt line: Indicate the recorded EC50 value for this compound: "O=C(c1cccc2ccccc12)c1cn(CCN2CCOCC2)c2cc(N=C=S)ccc12"
Response line: 1100 nM

Prompt line: Look up and report measured EC50 for this entry: "O=C(c1cccc2ccccc12)c1cn(CCN2CCOCC2)c2ccccc12"
Response line: 275 nM

Prompt line: # return recorded EC50 for entry "Cc1c(C(=O)c2ccc(N=C=S)c3ccccc23)c2ccccc2n1CCN1CCOCC1"
Response line: 3000 nM
